test system: HBV; test: HBV inhibition assay: anti-HBV activity in vitro in HepG2.2.15 cells (extracellular HBV DNA by qPCR); format: cell-based; conditions: Hepatitis B virus, 120 h, five days after compound treatment, extracellular HBV DNA in culture supernatant by qPCR, concentration at which HBV replication is inhibited by 50%
VALUE TYPE: EC50
State the value, then name its unit.

## Input Output measured EC50 for this item: C[C@H]1Cn2ncc(N3C[C@@H](C#N)CC3=O)c2CN1C(=O)Nc1cc(F)c(F)c(F)c1
## Output 9 nM

## Input Answer with the recorded EC50 of C[C@H]1Cn2ncc(N3CN(c4ncccn4)CC3=O)c2CN1C(=O)Nc1cc(F)c(F)c(F)c1 only.
## Output 52 nM

## Input Please report the measured EC50 for N#Cc1cc(NC(=O)N2CCn3ncc(-c4ccc(F)cc4F)c3C2)ccc1F
## Output 56 nM

## Input Determine from records and report EC50 for O=C(Nc1ccc(F)c(Cl)c1)N1CCn2ncc(-c3ccc(F)cc3F)c2C1
## Output 36 nM

## Input For the compound C[C@H]1Cn2ncc(N3CC4(CC4)C(O)C3=O)c2CN1C(=O)Nc1cc(F)c(F)c(F)c1 (some centres unmarked) , give its measured EC50 value.
## Output 44 nM

## Input Specify measured EC50 for C[C@H]1Cn2ncc(N3C[C@H](O)CC3=O)c2CN1C(=O)Nc1cc(F)c(F)c(F)c1 .
## Output 88 nM

## Input Dear colleague, please send me the reported EC50 for Cc1noc(C2CN(c3cnn4c3CN(C(=O)Nc3cc(F)c(F)c(F)c3)[C@@H](C)C4)C(=O)O2)n1 (some centres unmarked) when you can.
## Output 22 nM

## Input Read the entry C[C@H]1Cn2ncc(-n3cc(CO)cn3)c2CN1C(=O)Nc1cc(F)c(F)c(F)c1 and write its reported EC50.
## Output 41 nM

## Input Could you please provide reported EC50 for C[C@H]1Cn2ncc(N3CCNC3=O)c2CN1C(=O)Nc1cc(F)c(F)c(F)c1 ? Thanks!
## Output 47 nM

## Input Indicate its recorded EC50; the compound in question is C[C@H]1Cn2ncc(N3CN(C(=O)c4ccccc4)CC3=O)c2CN1C(=O)Nc1cc(F)c(F)c(F)c1
## Output 64 nM

## Input // fetch EC50 given entry O=C(Nc1ccc(F)c(Cl)c1)N1CCn2ncc(N3CC4CC4C3)c2C1 (centres unmarked)
## Output 100 nM

---

tested on: HBV; assay: HBV inhibition assay: anti-HBV activity in vitro in HepG2.2.15 cells (extracellular HBV DNA by qPCR); format: cell-based; conditions: Hepatitis B virus, 120 h, five days after compound treatment, extracellular HBV DNA in culture supernatant by qPCR, concentration at which HBV replication is inhibited by 50%
Consider the following compounds; for each one, report its EC50.
I only need the number, in nM, no unit after it.

## Input Provide only the value of recorded EC50 for C[C@H]1Cn2ncc(N3CC(c4nnco4)CC3=O)c2CN1C(=O)Nc1cc(F)c(F)c(F)c1 (stereo partly shown)
## Output 57

## Input Tell me its EC50 given C[C@H]1Cn2ncc(N3CC(c4ccc(F)cn4)OC3=O)c2CN1C(=O)Nc1cc(F)c(F)c(F)c1 (stereo partly shown) as the entry.
## Output 37

## Input Assign EC50 to the following record: C[C@H]1Cn2ncc(N3CC(c4cccc(F)n4)OC3=O)c2CN1C(=O)Nc1cc(F)c(F)c(F)c1 (stereo partly shown)
## Output 18

## Input Answer with the recorded EC50 for the compound listed here: C[C@H]1Cn2ncc(N3CC[C@H](O)C3=O)c2CN1C(=O)Nc1cc(F)c(F)c(F)c1
## Output 65

## Input Please report the measured EC50 for O=C(Nc1ccc(F)c(Cl)c1)N1CCn2ncc(-c3cc(C(F)(F)F)ccn3)c2C1
## Output 29

## Input Hello, please tell me recorded EC50 for this one: O=C(Nc1ccc(F)cc1)N1CCn2ncc(-c3ccccc3F)c2C1
## Output 85

## Input Retrieve EC50 measured for CC1CN(c2cnn3c2CN(C(=O)Nc2cc(F)c(F)c(F)c2)[C@@H](C)C3)C(=O)CO1 (stereo partly shown) and print it.
## Output 31
